target: Protease (Human immunodeficiency virus 1); experiment: Inhibition of recombinant HIV1 protease at 1 mM using FRET substrate peptide by FRET assay
Calls of active or inactive are those of the source. The calls are words filed in the database; no cut-off is given here. Square brackets hold non-standard residues; d marks the D form. Peptide text beside a SMILES is read from it. * marks the point of attachment. Hyp = O=C(O)[C@@H]1C[C@@H](O)CN1; ONp = O=[N+]([O-])c1ccc(O*)cc1; Cbz = O=C(OCc1ccccc1)*; Boc = CC(C)(C)OC(=O)*; OBn = c1ccc(CO*)cc1
reported_metric: inhibition

>>> observed("CC(C)C[C@@H](NC(=O)[C@H](CSCc1ccccc1)NC(=O)OCc1ccccc1)C(=O)OCc1ccccc1")
"inactive"
>>> observed("COC(=O)[C@H](Cc1ccc(O)cc1)NC(=O)[C@H](CC(C)C)NC(=O)[C@H](CO)NC(=O)OCc1ccccc1 (Cbz-Ser-Leu-Tyr-OMe)")
"Active"
>>> observed("C[C@@H](NC(=O)[C@H](Cc1ccccc1)NC(=O)[C@H](Cc1ccccc1)NC(=O)OC(C)(C)C)C(=O)OCc1ccccc1")
"inactive"
>>> observed("O=C(CNC(=O)[C@@H]1CCCN1C(=O)[C@@H]1C[C@@H](O)CN1C(=O)OCc1ccccc1)Oc1ccc([N+](=O)[O-])cc1 (Cbz-[Hyp]-Pro-Gly-ONp)")
"inactive"
>>> observed("COC(=O)[C@H](CC(C)C)NC(=O)[C@H](Cc1ccccc1)NC(=O)[C@H](CO)NC(=O)OCc1ccccc1 (Cbz-Ser-Phe-Leu-OMe)")
"Active"
>>> observed("CC(C)[C@H](NC(=O)[C@H](Cc1ccccc1)NC(=O)OC(C)(C)C)C(=O)NCC(=O)OCc1ccccc1 (Boc-Phe-Val-Gly-OBn)")
"inactive"

Numbers sourced from ChEMBL document CHEMBL3612063.
